target: gp120 of viral strain VI824 (HIV, strain VI824); experiment: cell-based or functional assay
*1 amine or outer side, *2 acyl side, *3 side chain or, on linkers, in order; H or OH if unused. [ ]: non-standard residue; d: D form. U1 = 4-cyclohexylmethoxy-L-phenylalanine, O=C([C@H](Cc1ccc(OCC2CCCCC2)cc1)N[*:1])[*:2]; Bip = N[C@@H](Cc1ccc(-c2ccccc2)cc1)C(=O)O; Tpa = thiopropionic acid
Please respond with 1.0 when measured EC50 (antiviral activity, TZM-bl cells, luciferase) is strictly beneath 40 nM, and with 0.0 in all other cases.

binder: M48U1-PS1 (not fully specified; N-terminal gamma-aminobutyric acid (gammaAbu) acylated with 3-thiopropionyl (from SATP); all six Tyr are sulfotyrosine (YSO3); N-terminal Tpa; D-proline at position 21; U1 (4-cyclohexylmethoxy-L-phenylalanine) at position 23; C-terminal amide; Lys11 N-epsilon carries the PEO2-maleimide linker bound to the thiol of the PS1 chain) peptide 1: NLHFCQLRCKSLGLLGRCAPTFCACV peptide 2: SYDYSYDYSYDYS
classification: 1.0
//
binder: mCD4.2-PS1 (not fully specified; N-terminal gamma-aminobutyric acid (gammaAbu) acylated with 3-thiopropionyl (from SATP); all six Tyr are sulfotyrosine (YSO3); N-terminal Tpa; D-proline at position 21; U1 (4-cyclohexylmethoxy-L-phenylalanine) at position 23; C-terminal amide; Lys5 N-epsilon carries the PEO2-maleimide linker bound to the thiol of the PS1 chain) peptide 1: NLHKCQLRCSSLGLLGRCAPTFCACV peptide 2: SYDYSYDYSYDYS
classification: 1.0
//
binder: Tpa-NLHFCQLRCKSLGLLGRCA[dP]T[U1]CACV-NH2 (disulfide (positions not given here)) [M48U1]
classification: 1.0
//
binder: Tpa-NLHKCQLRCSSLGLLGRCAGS[Bip]CACV-NH2 (disulfide (positions not given here); also: three disulphide bridges, pairing not given here) [mCD4.1]
classification: 0.0
